B1: LINE1-mini (parent)
chain: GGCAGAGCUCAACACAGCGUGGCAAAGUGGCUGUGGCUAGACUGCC

Variants of: B1
Experiment: self-cleavage, relative activity (ratio to wild type); higher = more cleavage; in vitro, sequencing; the parent is a self-cleaving ribozyme
readout.name: self-cleavage

Reference set, count: 10
mutant.id	self-cleavage
G1U U43G	0.07
A12C C42U	0.01
A26U U43G	0.09
G2C C13U	0.18
U9A G35U	0.09
G35C G44A	0.09
U28C G33C	0.06
A11G A12G	0.02
C31G U38C	0.07
A12C G27U	0.02

Query block: Item G2U A14C : provide self-cleavage
Result block: 0.01

Query block: Item U20G C23A : provide self-cleavage
Result block: 0.48

Query block: Item G17U U20G : provide self-cleavage
Result block: 0.12

Query block: Item A14G A39U : provide self-cleavage
Result block: 0.37

Query block: Item G21U C42U : provide self-cleavage
Result block: 0.53

Query block: Item C31A A41U : provide self-cleavage
Result block: 0.09

Query block: Item G5A G27U : provide self-cleavage
Result block: 0.08

Query block: Item C3A A4U : provide self-cleavage
Result block: 0.38
